Tested on: NALM-6 (B-Lymphoblastic Leukemia)
protocol_notes: combination Emax (second highest fraction inhibited in the dose matrix, 72 h); higher = more inhibition; extreme values may be limits of the assay
observed_property: combination Emax
Could you keep your reply to the number by itself?

Here is how some molecules turned out for combination Emax.
molecule | target_entity | observed_property | val
CC(=O)Nc1cccc(-n2c(=O)n(C3CC3)c(=O)c3c(Nc4ccc(I)cc4F)n(C)c(=O)c(C)c32)c1 [Trametinib] + Cc1nc(-c2cn3c(n2)-c2ccc(-c4cnn(C(C)(C)C(N)=O)c4)cc2OCC3)n(C(C)C)n1 [Taselisib] (first compound max 1 µM, 7x7, partner max 10 µM) | NALM-6 (B-Lymphoblastic Leukemia) | combination Emax | 0.689
COc1cccc(OCCCN)c1-c1cc(Nc2cnc(C#N)cn2)n[nH]1 [Prexasertib] + C=CCn1c(=O)c2cnc(Nc3ccc(N4CCN(C)CC4)cc3)nc2n1-c1cccc(C(C)(C)O)n1 [AZD1775] (first compound max 1 µM, partner max 1 µM) | NALM-6 (B-Lymphoblastic Leukemia) | combination Emax | 0.934
N#Cc1cnc(Nc2cc(NC[C@H]3CNCCO3)c(C(F)(F)F)cn2)cn1 [SRA737] + Nc1ccn([C@@H]2O[C@H](CO)[C@@H](O)C2(F)F)c(=O)n1 [Gemcitabine] (first compound max 10 µM, 7x7, partner max 0.3 µM) | NALM-6 (B-Lymphoblastic Leukemia) | combination Emax | 0.954

Query molecule follows.
Exercise: I am curious: what combination Emax value has been reported for Cc1c2c(nn1C)CSCc1cc(n(C)n1)CSc1cc(c3ccccc3c1)OCCCc1c(C(=O)O)n(C)c3c-2c(Cl)ccc13 [AZD5991] + CS(=O)(=O)CCNCc1ccc(-c2ccc3ncnc(Nc4ccc(OCc5cccc(F)c5)c(Cl)c4)c3c2)o1 [Lapatinib] (first compound max 1 µM, 7x7, partner max 10 µM) ?
Solution: 0.761

###

Bliss excess: recorded values
Test system: IGR-1 (Melanoma);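 also: after 72 h of two-drug dosing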
protocol_notes: Bliss excess, mean over the matrix (fraction); higher = more synergy

Here is how some compounds turned out for Bliss excess.
compound | Bliss excess
Cc1cc2ncnn2cc1Nc1ncc2c(n1)n(C1CCOCC1)c(=O)n2C [AZD7648] + O=C(c1cc(Cc2n[nH]c(=O)c3ccccc23)ccc1F)N1CCN(C(=O)C2CC2)CC1 [Olaparib] (first compound max 10 µM, 7x7, partner max 10 µM) | -0.0032
CC1(C)CCC(CN2CCN(c3ccc(C(=O)NS(=O)(=O)c4ccc(NCC5CCOCC5)c([N+](=O)[O-])c4)c(Oc4cnc5[nH]ccc5c4)c3)CC2)=C(c2ccc(Cl)cc2)C1 [Venetoclax] + Cn1cnc2c(F)c(Nc3ccc(Br)cc3Cl)c(C(=O)NOCCO)cc21 [Selumetinib] (first compound max 1 µM, 7x7, partner max 3 µM) | -0.0405
CCN(CCO)CCCOc1ccc2c(Nc3cc(CC(=O)Nc4cccc(F)c4)[nH]n3)ncnc2c1 [AZD2811] + C=CCn1c(=O)c2cnc(Nc3ccc(N4CCN(C)CC4)cc3)nc2n1-c1cccc(C(C)(C)O)n1 [AZD1775] (first compound max 1 µM, partner max 1 µM) | -0.0438
CC(=O)Nc1cccc(-n2c(=O)n(C3CC3)c(=O)c3c(Nc4ccc(I)cc4F)n(C)c(=O)c(C)c32)c1 [Trametinib] + Cc1nc(-c2cn3c(n2)-c2ccc(-c4cnn(C(C)(C)C(N)=O)c4)cc2OCC3)n(C(C)C)n1 [Taselisib] (first compound max 1 µM, 7x7, partner max 10 µM) | 0.15
C=CCn1c(=O)c2cnc(Nc3ccc(N4CCN(C)CC4)cc3)nc2n1-c1cccc(C(C)(C)O)n1 [AZD1775] + O=C(c1cc(Cc2n[nH]c(=O)c3ccccc23)ccc1F)N1CCN(C(=O)C2CC2)CC1 [Olaparib] (first compound max 1 µM, partner max 10 µM) | 0.0054

Exercise: I am curious: what Bliss excess value has been reported for Cn1cnc2c(F)c(Nc3ccc(Br)cc3Cl)c(C(=O)NOCCO)cc21 [Selumetinib] + C[C@@H]1COCCN1C2=NC(=NC(=C2)C3(CC3)[S@](=N)(=O)C)C4=C5C=CNC5=NC=C4 [AZD6738] (first compound max 10 µM, 7x7, partner max 10 µM) ?
Solution: 0.0257

Exercise: I am curious: what Bliss excess value has been reported for COc1nnc2ccc(N3CCC(c4ccc(OCCN5CCN(C)C(=O)[C@H]5C)cc4)CC3)nn12 [AZD5153] + CN(CC[C@H](CSC1=CC=CC=C1)NC2=C(C=C(C=C2)S(=O)(=O)NC(=O)C3=CC=C(C=C3)N4CCC(CC4)[C@H](C5=CC=CC=C5C6=CC=C(C=C6)Cl)O)S(=O)(=O)C(F)(F)F)CCO [AZD4320] (first compound max 1 µM, 7x7, partner max 1 µM) ?
Solution: 0.197
